Across several studies, compounds have been characterized by their pKi on human VR1 (Homo sapiens, UniProt Q8NER1); a selection follows.
Field pKi (float): negative decimal logarithm of the concentration in molar.

Consider the following illustrative entries.
[[record]]
compound = "O=C(Nc1cccc2cnccc12)N[C@@H]1CCc2cc(F)ccc2[C@@H]1Cc1ccoc1 (relative stereo)"
observed_value = 7.81

[[record]]
compound = "CC(C)(C)c1ccc(CCc2nc3cc(-c4ccccc4O)ccc3[nH]2)cc1"
observed_value = 7.00

[[record]]
compound = "O=C(NCc1ccc(Cl)cc1Cl)Nc1cccc2ccc(O)cc12"
observed_value = 8.55

[[record]]
compound = "CC(=O)c1ccccc1-c1ccc2[nH]c(/C=C/c3ccc(C(F)(F)F)cc3)nc2c1"
observed_value = 7.39

[[record]]
compound = "CC(C)(C)c1ccc(CCC(=O)Nc2ccc(-n3cnc(Cl)c3Cl)c(C(F)(F)F)c2)cc1"
observed_value = 8.23

[[record]]
compound = "CC(C)(C)c1ccc(CCC(=O)Nc2ccc(-c3cccc(C#N)c3)cc2)cc1"
observed_value = 6.99

[[record]]
compound = "O=C(CCc1ccc(C(F)(F)F)cc1)Nc1ccc(-c2cccnc2F)c(C(F)(F)F)c1"
observed_value = 6.30

[[record]]
compound = "CC(=O)c1ccccc1-c1ccc2[nH]c(/C=C/c3ccc(F)c(F)c3)nc2c1"
observed_value = 5.74


Lab note: record pKi of O=C(NCc1ccc(OC(F)(F)F)cc1)Nc1cccc2ccc(O)cc12 tested on human VR1 (Homo sapiens, UniProt Q8NER1).
9.96

Under human VR1 (Homo sapiens, UniProt Q8NER1): report pKi of O=C(NCc1ccc(OC(F)(F)F)cc1)Nc1cccc2cnccc12 .
8.89

Would you please give the reported pKi of CC(=O)Nc1cccc(-c2ccc(NC(=O)CCc3ccc(C(C)(C)C)cc3)cc2C)c1 with human VR1 (Homo sapiens, UniProt Q8NER1)?
6.74

---

pKi: −log10 of the molar value.
Consider the following pKi data for human VR1 (Homo sapiens, UniProt Q8NER1), collected from several reports.
Note that class boundaries on pKi are lo (below 6), med (6 to below 8), hi (8 or more)

[[record]]
compound = "COc1ccc2c(c1)CCC(NC(=O)NCCc1ccc(OC)c(OC)c1)C2Cc1ccccc1 (stereo not drawn)"
class_name = "lo"

[[record]]
compound = "Cc1cc(NC(=O)CCc2ccc(C(C)(C)C)cc2)cnc1-c1cccc([N+](=O)[O-])c1"
class_name = "med"

[[record]]
compound = "COc1ccc2c(c1)CCC(NC(=S)NCc1ccc(O)c(OC)c1)C2Cc1cccnc1 (stereo not drawn)"
class_name = "lo"

[[record]]
compound = "O=C(NCc1ccccc1)Nc1cccc2ccc(O)cc12"
class_name = "med"


Pick a category. Item: O=C(/C=C/c1ccc(S(=O)(=O)C(F)(F)F)cc1)Nc1ccc(-n2cnc(Cl)c2Cl)c(C(F)(F)F)c1
med

Please let me know in which category the item CC(C)(C)c1ccc(CCC(=O)Nc2ccc(-c3ccccn3)nc2)cc1 belongs.
med

Categorize the following entry: COc1cc2c(cc1OC)C(Cc1ccccc1)C(NC(=O)Nc1cccc3cnccc13)CC2 (stereo not drawn)
med

---

Header: pKi / human VR1 (Homo sapiens) / multiple publications
Answer as the number alone; pKi is minus log10 of concentration in mol/L.

[[record]]
compound = "COc1ccc2c(c1)CCC(NC(=O)Nc1cccc3cnccc13)C2Cc1c(F)cccc1F (stereo not drawn)"
metric = "pKi"
observed_value = 8.20

[[record]]
compound = "O=C(Nc1cccc2[nH]ccc12)C1CCN(c2cccc(C(F)(F)F)c2)CC1"
metric = "pKi"
observed_value = 6.87

[[record]]
compound = "O=C(NCCc1cccc(C(F)(F)F)c1)Nc1cccc2cnccc12"
metric = "pKi"
observed_value = 7.39


Enter pKi (test system human VR1 (Homo sapiens)) for CC(C)(C)c1ccc(CCC(=O)Nc2ccc(-c3ccccn3)cc2)cc1
7.95

Using human VR1 (Homo sapiens) as the test system, report measured pKi of Cc1cccc(N2CCC(C(=O)Nc3ccc4c(c3)NC(=O)CO4)CC2)c1C .
7.57

// fetch pKi for O=C(NCc1ccc(C(F)(F)F)cc1)Nc1cccc2cnccc12 ; system: human VR1 (Homo sapiens)
8.16

Write down measured pKi (human VR1 (Homo sapiens)) for this compound. O=C(Nc1cccc2c(Cl)nc(Cl)cc12)NC1CCc2cc(F)ccc2C1Cc1ccccc1 (stereo not drawn)
7.53

For human VR1 (Homo sapiens), give the measured pKi of the entry O=C(NCc1ccc(Cl)cc1)Nc1cccc2ccc(O)cc12
8.49

Report value: pKi, system: human VR1 (Homo sapiens), compound: O=C(Nc1cccc2ccc(O)cc12)N(Cc1ccccc1)Cc1ccccc1
5.48
